Data provenance is the nanobody polyreactivity screen of Harvey et al. (2022).

- Run Description: yeast display, Sf9 membrane polyspecificity reagent, FACS + sequencing; frameworks hold sequencing errors

# Residue Sequence, polyreactivity (PSR sort gate)
records = [
    ("QVQLVESGGGLVQAGGSLRLSCAASGNIFAYYAMGWYRQAPGKERELVAGISRRGGNTYYADSVKGRFTISRDNAKNTVYLQMNSLKPEDTAVYYCAAKTYSGQRFDYWGQGTQVTVSS", "high polyreactivity"),
    ("QVQLVESGGGLVQAGGSLRLSCAASGYIFWENAMGWYRQAPGKERELVAAITVSGGGTYYADSVKGRFTISRDNAKNTVYLQMNSLKPEDTAVYYCAADEDNPWLWFYYWGQGTQVTVSS", "low polyreactivity"),
    ("QVQLGESGGGLVQAGGSLRLSCAASGSTFNIYAMGWSRQSPGNERELVAAISSCGGRTYYADSVKGRFTISLDNAKNTVYLQMNSVKPEDTAVYYCAAVRSYYRGYDYWGQGTQVTVSS", "high polyreactivity"),
    ("QVQLVESGGGLVQAGGSLRLSCAASGFTFWYYTMGWYRQAPGKERELVAAITRSGGRTYYADSVKGRFTISRDNAKNTVYLQMNSLKPEDTAVYDCAAVGNLYYTSHWQYDYWGQGTQVTVSS", "high polyreactivity"),
    ("QVQLVESGGGIVQAGGSLRLSCAASGSTFGTYAMGWYRQAPGKEMELVAAISNSGGSTYYADSVKGRFTISRDNAKNTVYLLMNSLKQEDTAVYYCNTDGLVRNGPFYSWGQGTQVTVSS", "low polyreactivity"),
]

----------
- Run Description: yeast display, Sf9 membrane polyspecificity reagent, FACS + sequencing; frameworks hold sequencing errors
Attribute Measured: polyreactivity (PSR sort gate)

# Residue Sequence, Attribute Measured, Result
rows = [
    ("QVQHVESGGGLVQAGGSLRLSCAASGSTFHDYAMAWYRQATGKEREFVAAIRWRGGSTYYADSVKGRFTISRDNAKNTVYLQMNSLKPEDTAVYYCAADYLQFRKYVVHFDYLGQGTQVTVSS", "polyreactivity (PSR sort gate)", "low polyreactivity"),
    ("QVQLVESGGGLVQAGGSLRLSCAASGLTFKRNAMGWYRPAPGKERELVAAIRYSTDSTNCADSVKGRFTISRDNAKNTVYLQMNSLKPEDTAVYYCAKDKQDYEYWGQGTQVTVSS", "polyreactivity (PSR sort gate)", "low polyreactivity"),
    ("QVQLVESGGGLVQAGGSLRLSCAASGRIFYGNAMGWYRQAPGKERELVASITSSGSTKYADSVKGRFTISRDNAKNTVYLQMNSLKPEDTAVYYCAASYTKRYDTYAGYDYWGQGTQVTVSS", "polyreactivity (PSR sort gate)", "low polyreactivity"),
    ("QVQLVESGGGLVQAGGSLRLSCAASGLTFYTNAMGSYRQAPGKERELLAAITSSGGRTYYADSVKGRFTISRDNAKYTVYLQMNSLKPEDTAVYYCAADARRPRIPEMYYWGLGTQVTVSS", "polyreactivity (PSR sort gate)", "high polyreactivity"),
    ("QVQLVESGGGIVQAGGSLRLSSAASGFTFYYYAIGWYRQAPGKERELVAAISSGGSTYYADSVKGRFTISRDNAKNTVYLQMNSLKPEDTAVYYCAADSLYYRYDYWGQGTQVTVSS", "polyreactivity (PSR sort gate)", "low polyreactivity"),
    ("QVQLVESGGGLVQAGGSLRLSSAASGRTLSKNAMGWYRQAPGKERELVATISSVGRTNYADSVKGRFTISRDNAKNTVYLQMNSLKPEDTAVYYCAATVRGKRSTYDYWGQGTQVTVSS", "polyreactivity (PSR sort gate)", "high polyreactivity"),
    ("QVQLVESVGGLVQAGGSLRLSSAASGYTSNIYAMGWYRQAPGTERELVASIRGRSGSTYYADSVKGRFTISRDNAKNSVYLQMNSLKPEDTAVYYCAGSRPWDFYRFGFDYWGQGTQVTVSS", "polyreactivity (PSR sort gate)", "high polyreactivity"),
    ("HVHLQESGGGLVQAGGSLRLSCAASGSINDETYMAWYRQAPGKERELVATIDSGSTTNYADSVKGRITISRDNAKNTVYLQMNSLKPEDTAVYYCAAADSHIDYFDYWGQGSQVTVSS", "polyreactivity (PSR sort gate)", "low polyreactivity"),
    ("QLQLVESGGGLVQAGCSLRLSFAASVIICWANAMGCYIHAPGKERELVASITSGGSTYYADSVKGRFTISRDNAKTTVYFQMNSLKPEDTAVYYCAADPYGWWDWHTLGTYDYWGQGTQVTVSS", "polyreactivity (PSR sort gate)", "low polyreactivity"),
    ("QVQLVESGVGLVQARGSLRLSSAASGRIFDRNAMGWYRQSPGNERELVAAIDDSGGDTSYADSVKGRFTISRDNAKNTVYLQMTSLKPEDTAVYYCNAVKQRSSIFDYWGQGTQLTVSS", "polyreactivity (PSR sort gate)", "low polyreactivity"),
    ("QDQLVESGGGLVQAGGSLRLSCAASGIIFYDYAMGWYRQAPGKERELVAAITSNGDNTYYADSVKGRFTISRDNAKNTVYLQMNSLKPEDTAGYYCAVDGSFAADFDNYLEEYGYWGQGTQVTVSS", "polyreactivity (PSR sort gate)", "low polyreactivity"),
]

----------
- Run Description: yeast display, Sf9 membrane polyspecificity reagent, FACS + sequencing; frameworks hold sequencing errors

# Residue Sequence, polyreactivity (PSR sort gate)
rows = [
    ("QFQLVESGGGFVQAGGSLRLSCAASGYTFQRYAMGWYRQAPGKERELVATISKRGGSTYYADSVKGRFTISRDNAKNTDYLQMNSLKPEDTAVYYCNKLRGLHNGYDYWGQGTQVTVSS", "high polyreactivity"),
    ("QVQLVESGGGLVQAGGSLRLSCAASGSNFRYYALGWYRQAPGKERELVAGNTGSTGRTYYADSVKGRFTISRDNAKNTVYLQMNRLKPEDTAVYYCATGIYRARTSSFRMGYWGQGTHVTVSS", "low polyreactivity"),
    ("QVQLVESGGGLVQAGGSLRLSCAASGFTFRWYDMGWYRQAPGKERELVAAITWRGDNTYYADSVKGRFTISRDNAKNTVYLQMNSLKPEDTAVYYCAAAWPTFISDLSGVDYWGQGTQVTVSS", "low polyreactivity"),
    ("QVQLVESGGGLVQAGGSLRLSCAASGRIFRSNAMGWYRQAPGKERELVATISRRGGSTYYADSVKGRFTISRDNAKNTVYLQMNSLKPEDTAVYFCNTRNSGSLDLYNTMDYWGQGTQVTVSS", "high polyreactivity"),
    ("QVQLVESGGGLVQAGGSLRLSCAASGGTFRRYTMGWYRPAPGKERELVAVISRSGGSTYYADSVKGRFTISRDIAKNTVYLQMNSLKPEDTAVYYCAVVYYNGYDWGQGTQVTVSS", "high polyreactivity"),
    ("QVQLVDSGGGLVQAGASLRLSCAASGSTFSSNVMGWYRQAPGKERELVAAITKTGGLTYYADSVKGRFTISRDNAKNTVYLNMNSLKPEDTSVYYCAAKSKRRGTTSVYYYWGQGTQVTVSS", "high polyreactivity"),
    ("QVQLVESGGGLVQAGGSLSLSCAASGGIFFYYAMGWYRQAPGKEMELVASISYSGGSTYYADSVKGRFTISRDNAKNTVYLQMNSLKTEDTAVYYCAARTHYFPWPWYVWDYDSWGQGTQVTVSS", "low polyreactivity"),
    ("QVQLVESGGGLVQAGGSLRLSCAASGSIFKKYAMGWYRQAPGKERELVAAISKSGGSTYYADSVKGRFTISRDNAKNTVYLQMNSLKPDDTAVYYCAAAAGGSAYWDYDYWGQGTQVTVSS", "low polyreactivity"),
    ("QIHLVESGGGLVQAGGSLRLSCAASGGIFYINAMGWYRQAPGKEREFVAAITESSDITYYADSVKGRFTISRDNAKNTVYLQMNSLKPEDSAVYYCAAEFVRSGDDYWGQGTQVTVSS", "low polyreactivity"),
    ("QVQLVESGGGLVQAGGSLRVSCAASGSTFNINAMGWYREAPGKERELVAAISSGGSTNYADSVKGRFTISRDNAKNTVYLQMNSLKPEDTAVYYCNADFILSGWWGIVGYDYWGQGTQVTVSS", "low polyreactivity"),
    ("QFQLVESGGGLVQAGCSLRLSCAASGLTVGSNTMGWDRQAPGKERELVAAITSNGGSTYYADSVKGRFTISRDNAKNTVYLQMNSLIPEDTAVYYCAADDRGLISRRGYFYLSYDYWGQGTQVTVSA", "low polyreactivity"),
]

----------
- Run Description: yeast display, Sf9 membrane polyspecificity reagent, FACS + sequencing; frameworks hold sequencing errors
Attribute Measured: polyreactivity (PSR sort gate)

# Residue Sequence, Result
data = [
    ("QVQLVESGGGLVQAGGSLRLSCAASGSTFYYYAMGWYRQAPGKERELVASIRSRDGSTRYADSVKGRFTISRDNAKNTVYLQMNSLKPEDTAVYYCAAVGYRRVDAGSSASRYDYWGQGTQVTVSS", "high polyreactivity"),
    ("QVQLVESGGGVVQAGGSLRLSCAASGRIFYKYAMGWYRQAPGKAREFVATISSSGGSTYYADSVKGRFTISRDNAKNTAYLQMNSLKPEDTAVYYCAARYGRVTREYWGQGTQVTVSS", "high polyreactivity"),
]
